Settings: in comparison to a 15 mg dose of hydrocodone
Hi! Just check whether Equianalgesic dose, Calculated Dose is below 9 mg. Below gives satisfied, equal or above gives not satisfied.

See these solved cases before continuing.
COc1ccc2c3c1O[C@H]1[C@@H](O)C=C[C@H]4[C@@H](C2)N(C)CC[C@@]341 :: not satisfied
CN1CC[C@]23CCCC[C@H]2[C@H]1Cc1ccc(O)cc13 :: satisfied
COc1ccc2c3c1OC1C(=O)CC[C@H]4[C@@H](C2)N(C)CC[C@]314 (some centres unmarked) [Hydrocodone] :: not satisfied

// next entry
Lab log: compare recorded Equianalgesic dose, Calculated Dose with 9 mg; is it strictly lower for COc1ccc2c3c1OC1C(=O)CC[C@@]4(O)[C@@H](C2)N(C)CC[C@]314 (some centres unmarked) ?
not satisfied
